Reported values of rampo score relative to the P28R control sample for individual entries
experimental-system: T1, His-tagged P3028 (human, also: His-tag, terminus and sequence not given here)
T1 construct: used in solution in the PEPSCAN (rampo) ELISA; also called PGE73; His-tag-P3028; not shown: His tag
T1 peptide: VFDEFKPLVEEPQNLIK
measurement-protocol: PEPSCAN ELISA (rampo)
No end group written: not given here.

INSERT INTO results (binder, value) VALUES
  ('KKLDTIFVKLSLFTER [SEQ ID NO 314]', '≥ 98 % of P28R control'),
  ('KKLWTFFVKLSLFTER [SEQ ID NO 302]', '≥ 98 % of P28R control'),
  ('KKLDTFFVKLSHFTER [SEQ ID NO 351]', '≥ 98 % of P28R control'),
  ('KKLDTFFVKLSLQTER [SEQ ID NO 370]', '≥ 98 % of P28R control');

stdin: Check the records and state rampo score relative to the P28R control sample for KKLDTFFVKLSLGTER [SEQ ID NO 363]
stdout: ≥ 98 % of P28R control

stdin: Check the records and state rampo score relative to the P28R control sample for KKLDTFFVKGSLFTER [SEQ ID NO 334]
stdout: ≥ 98 % of P28R control

stdin: Check the records and state rampo score relative to the P28R control sample for KKLDTFFVKLSLMTER [SEQ ID NO 367]
stdout: ≥ 98 % of P28R control

stdin: Check the records and state rampo score relative to the P28R control sample for KKLDTFQVKLSLFTER [SEQ ID NO 322]
stdout: ≥ 98 % of P28R control

stdin: Check the records and state rampo score relative to the P28R control sample for KKLDTFFVKASLFTER [SEQ ID NO 332]
stdout: ≥ 98 % of P28R control

stdin: Check the records and state rampo score relative to the P28R control sample for KKLDTFFVKLQLFTER [SEQ ID NO 348]
stdout: ≥ 98 % of P28R control

stdin: Check the records and state rampo score relative to the P28R control sample for KKLDTFFVKTSLFTER [SEQ ID NO 342]
stdout: ≥ 98 % of P28R control

stdin: Check the records and state rampo score relative to the P28R control sample for GKLDTFFVKLSLFTER [SEQ ID NO 271]
stdout: ≥ 98 % of P28R control

stdin: Check the records and state rampo score relative to the P28R control sample for KKLDTFFVKLSVFTER [SEQ ID NO 359]
stdout: ≥ 98 % of P28R control

stdin: Check the records and state rampo score relative to the P28R control sample for KKLDTVFVKLSLFTER [SEQ ID NO 319]
stdout: ≥ 98 % of P28R control

stdin: Check the records and state rampo score relative to the P28R control sample for KKLDTFFVKQSLFTER [SEQ ID NO 339]
stdout: ≥ 98 % of P28R control
